System: E. coli (ATCC 25922)
test-protocol: microbe, parasite or virus in culture
conditions: Escherichia coli, ATCC25922, read-out: MIC Compound alone, Table 1
Record form. Attribute: MIC. Fill in for each entry.

INSERT INTO assay_data (compound, test_system, result) VALUES
  ('CCNC(=O)Nc1nc2cc(-c3cnc(C(C)(O)CO)nc3)ccc2s1 (stereo not shown) [Compound A-7]', 'E. coli (ATCC 25922)', '32 µg/mL');

Batch: MIC for all items listed.
1. CCNC(=O)Nc1nc2cc(-c3cnc(NS(=O)(=O)CC(=O)OC)nc3)cc(-c3ccc(C)cn3)c2s1 [Compound A-16]
2. CCNC(=O)Nc1nc2cc(-c3ccn(C)c(=O)c3)cc(-c3ccccn3)c2s1 [Example 51 (WO2007/148093)]
3. CC(C)(C)S(=O)(=O)Nc1ncc(-c2cc(Br)c3sc(N)nc3c2)cn1 [Compound A-102]
4. CCNC(=O)Nc1nc2cc(-c3cnc(C(C)(C)O)nc3)cc(-c3cc(CN4CCOCC4)ccn3)c2s1 [Example 28 (WO2013/138860)]
5. CCNC(=O)Nc1nc2cc(-n3cnc(C)c3)cc(-c3ccccn3)c2s1 [Compound A-3]
6. CCNC(=O)Nc1nc2c(-c3ccc(C)cn3)cc(-c3cnc(NS(=O)(=O)C(C)(C)C)nc3)cn2n1 [Compound A-101]

1: > 64 µg/mL; 2: 16 µg/mL; 3: > 64 µg/mL; 4: > 64 µg/mL; 5: > 64 µg/mL; 6: > 64 µg/mL

---

Tested on: E. coli (ATCC 25922)
conditions: Table 12; (b) No significant effect
Positions of bridges follow the written chain, without caps; N, C: chain ends. Non-standard residues stand in square brackets, D forms with d. Residues, ends and D or L forms follow the SMILES beside them. *: point of attachment. Ileψ(thiazoline)Cys = CC[C@H](C)[C@H](N)C1=N[C@H](C(=O)*)CS1; dOrn = NCCC[C@@H](N)C(=O)O
Record form. Attribute: MIC of Compound (μg/ml) in the presence of PMBN (32 μg/ml). Fill in for each entry.

Worked examples, 5 molecules total:
INSERT INTO measurements (molecule, result) VALUES
  ('C[C@@H](O)[C@H]1C(=O)N2C(C(=O)O)=C(SCCN=CN)C[C@H]12 [Imipenem, reference compound]', '0.5^(b) μg/ml'),
  ('CC[C@H](C)[C@H](N)C1=N[C@H](C(=O)N[C@@H](CC(C)C)C(=O)N[C@H](CCC(=O)O)C(=O)N[C@H](C(=O)N[C@H]2CCCCNC(=O)[C@H](CC(N)=O)NC(=O)[C@@H](CC(=O)O)NC(=O)[C@H](Cc3cnc[nH]3)NC(=O)[C@@H](Cc3ccccc3)NC(=O)[C@H]([C@@H](C)CC)NC(=O)[C@@H](CCCN)NC2=O)[C@@H](C)CC)CS1 [Bacitracin, reference compound] ({Ileψ(thiazoline)Cys}-L[dE]IK[dOrn]I[dF]H[dD]N; lactam 4-C)', '>64^(b) μg/ml'),
  ('C[C@@H](O)[C@H]1C(=O)N2C(C(=O)O)=C(S[C@@H]3CN[C@H](C(=O)N(C)C)C3)[C@H](C)[C@H]12 [Meropenem, reference compound]', '0.5^(b) μg/ml'),
  ('C[C@H]1COc2c(N3CCN(C)CC3)c(F)cc3c(=O)c(C(=O)O)cn1c23 [Levofloxacin, reference compound]', '0.008^(b) μg/ml'),
  ('CCN1CCN(C(=O)N[C@@H](C(=O)N[C@@H]2C(=O)N3[C@@H]2SC(C)(C)[C@@H]3C(=O)O)c2ccccc2)C(=O)C1=O [Piperacillin, reference compound]', '0.25 µg/mL');

Batch: MIC of Compound (μg/ml) in the presence of PMBN (32 μg/ml) for all items listed.
1. NC[C@H]1O[C@H](O[C@H]2[C@H](O)[C@@H](O[C@H]3O[C@H](CO)[C@@H](O)[C@H](N)[C@H]3O)[C@H](N)C[C@@H]2N)[C@H](O)[C@@H](O)[C@@H]1O [Kanamycin, reference compound]
2. CC(C)(O/N=C(\C(=O)N[C@@H]1C(=O)N2C(C(=O)[O-])=C(C[n+]3ccccc3)CS[C@H]12)c1csc(N)n1)C(=O)O [Ceftazidime, reference compound]

1. 4^(b) μg/ml
2. 0.15 µg/mL

---

Test system: E. coli (ATCC 25922)
test-protocol: microbe, parasite or virus in culture
conditions: Escherichia coli, ATCC25922, read-out: MIC Compound alone, Table 1
parameter-measured: MIC (µg/mL)
Numbers only, in µg/mL.

Worked examples, 3 molecules total:
INSERT INTO measurements (molecule, parameter_measured, quantitative_readout) VALUES
  ('CCNC(=O)Nc1nc2cc(-c3cnc(C(C)(O)CO)nc3)cc(C)c2s1 (stereo not drawn) [Compound A-9]', 'MIC', 32),
  ('C=CCS(=O)(=O)Nc1ncc(-c2cc(-c3ccc(C)cn3)c3sc(NC(=O)NCC)nc3c2)cn1 [Compound A-17]', 'MIC', 2),
  ('CCCS(=O)(=O)Nc1ncc(-c2cc(-c3ccc(C)cn3)c3sc(NC(=O)NCC)nc3c2)cn1 [Compound A-12]', 'MIC', 2);

Batch: MIC for all items listed.
1. CCNC(=O)Nc1nc2cc(-c3cnc(NS(=O)(=O)N(C)CCO)nc3)cc(-c3ccc(C)cn3)c2s1 [Compound A-15]
2. CC1COc2c(N3CCN(C)CC3)c(F)cc3c(=O)c(C(=O)O)cn1c23 (stereo not drawn) [Ofloxacin, reference compound]
3. CCNC(=O)Nc1nc2cc(-c3cnc(NS(=O)(=O)C(C)(C)C)nc3)cc(-c3ccc(C)cn3)c2s1 [Compound A-13]
4. CNc1cc(F)cc2c1[nH]c1nc(Oc3ccc(C)nc3)nc(N3CCCC3)c12 [Compound A-23, reference compound]
5. CCNC(=O)Nc1nc2cc(-c3cnc(C(C)(O)CO)nc3)cc(-c3ncc(C)cn3)c2s1 (stereo not drawn) [Compound A-8]

[4, 0.03, 1, 1, 4]

---

Test system: A. baumannii (ATCC 19606)
test-protocol: microbe, parasite or virus in culture
conditions: Acinetobacter baumannii, ATCC19606, read-out: MIC Compound alone
parameter-measured: MIC (µg/mL)
Give bare numbers, in µg/mL.

Worked examples, 3 molecules total:
INSERT INTO measurements (molecule, test_system, parameter_measured, quantitative_readout) VALUES
  ('CCNC(=O)Nc1nc2cc(-c3cnc(C(C)(O)CO)nc3)cc(-c3ncc(C)cn3)c2s1 (centres unmarked)', 'A. baumannii (ATCC 19606)', 'MIC', 2),
  ('CCNC(=O)Nc1nc2cc(-c3ccn(C)c(=O)c3)cc(-c3ccccn3)c2s1', 'A. baumannii (ATCC 19606)', 'MIC', 4),
  ('CCNC(=O)Nc1nc2cc(-c3cnc(NS(=O)(=O)C(C)(C)C)nc3)cc(-c3ccc(C)cn3)c2s1', 'A. baumannii (ATCC 19606)', 'MIC', 1);

Batch: MIC for all items listed.
1. CCNC(=O)Nc1nc2cc(-c3cnc(NS(=O)(=O)C4CCCC4)nc3)cc(-c3ccc(C)cn3)c2s1
2. CCNC(=O)Nc1nc2cc(-c3cnc([C@H](C)O)nc3)cc(-c3ccccn3)c2s1

1: 1; 2: 4

---

Record form. Attribute: MIC of Compound (μg/ml) in the presence of PMBN (32 μg/ml). Fill in for each entry.
Tested on: E. coli (ATCC 25922)
conditions: Table 12; (b) No significant effect

Worked examples, 2 molecules total:
INSERT INTO measurements (molecule, result) VALUES
  ('CCn1cc(C(=O)O)c(=O)c2cc(F)c(N3CCNCC3)nc21 [Enoxacin, reference compound]', '0.03^(b) μg/ml'),
  ('O=C(N[C@H](CO)[C@H](O)c1ccc([N+](=O)[O-])cc1)C(Cl)Cl [Chloramphenicol, reference compound]', '1 µg/mL');

Batch: MIC of Compound (μg/ml) in the presence of PMBN (32 μg/ml) for all items listed.
1. COc1cc(Cc2cnc(N)nc2N)cc(OC)c1OC [Trimethoprim, reference compound]
2. CC1(C)S[C@@H]2[C@H](NC(=O)C(C(=O)O)c3ccccc3)C(=O)N2[C@H]1C(=O)O (stereo partly drawn) [Carbenicillin, reference compound]
3. CN(C)[C@@H]1C(O)=C(C(N)=O)C(=O)[C@@]2(O)C(O)=C3C(=O)c4c(O)cccc4[C@@](C)(O)[C@H]3C[C@@H]12 [Tetracycline, reference compound]

1. 2^(b) μg/ml
2. 32^(b) μg/ml
3. 1^(b) μg/ml

---

Tested on: E. coli (ATCC 25922)
test-protocol: microbe, parasite or virus in culture
conditions: Escherichia coli, ATCC25922, read-out: MIC Compound alone, Table 12
parameter-measured: MIC (µg/mL)
One number for each entry, in µg/mL.

Batch: MIC for all items listed.
1. CCn1cc(C(=O)O)c(=O)c2cc(F)c(N3CCNCC3)nc21 [Enoxacin, reference compound]
2. CC1(C)S[C@@H]2[C@H](NC(=O)[C@H](N)c3ccc(O)cc3)C(=O)N2[C@H]1C(=O)O [Amoxicillin, reference compound]
3. CC1COc2c(N3CCN(C)CC3)c(F)cc3c(=O)c(C(=O)O)cn1c23 (stereo not drawn) [Ofloxacin, reference compound]

1: 0.06; 2: 32; 3: 0.03
